Data credit: PubChem BioAssay AID1845211

tested on: NCI-H322M multicellular tumor spheroids, viability (% test/control); test: Anticancer human tumor NCI-H322M cell line growth inhibition; conditions: second compound 30 pM; first compound 0.316 µM; stronger effect = lower value
quantity: viability, T/C (%)
Give bare numbers, in %.

Please give the measured viability, T/C for this molecule: Cc1cc(C)c(CNC(=O)c2cc(-c3ccc(CN4CCOCC4)cc3)cc3c2cnn3C2CCCC2)c(=O)[nH]1 + COc1cc2c(cc1O)CCNC21CSC2c3c(OC(C)=O)c(C)c4c(c3C(COC1=O)N1C(O)C3Cc5cc(C)c(OC)c(O)c5C(C21)N3C)OCO4
87.1

Please give the measured viability, T/C for this molecule: CC1COCCN1c1cc(-c2ccnn2C)c2ccnc(-c3ccn[nH]3)c2n1 (stereo unspecified) + COc1cc2c(cc1O)CCNC21CSC2c3c(OC(C)=O)c(C)c4c(c3C(COC1=O)N1C(O)C3Cc5cc(C)c(OC)c(O)c5C(C21)N3C)OCO4
28.1

Please give the measured viability, T/C for this molecule: COc1cc(C)[nH]c(=O)c1CN1CCc2c(Cl)cc(C(OC)C3COC3)c(Cl)c2C1=O (stereo unspecified) + COc1cc2c(cc1O)CCNC21CSC2c3c(OC(C)=O)c(C)c4c(c3C(COC1=O)N1C(O)C3Cc5cc(C)c(OC)c(O)c5C(C21)N3C)OCO4
80.6

Please give the measured viability, T/C for this molecule: [2H]c1nc(C)nc([2H])c1-c1cc(NC[C@@H](C)c2cccc3c(C(=O)NC)ccnc23)ncn1 + COc1cc2c(cc1O)CCNC21CSC2c3c(OC(C)=O)c(C)c4c(c3C(COC1=O)N1C(O)C3Cc5cc(C)c(OC)c(O)c5C(C21)N3C)OCO4
85.6

Please give the measured viability, T/C for this molecule: CC(C)n1c(=O)n(C)c2cnc3cc(F)c(-c4ccc(OCCCN5CCCCC5)nc4)cc3c21 + COc1cc2c(cc1O)CCNC21CSC2c3c(OC(C)=O)c(C)c4c(c3C(COC1=O)N1C(O)C3Cc5cc(C)c(OC)c(O)c5C(C21)N3C)OCO4
74.4

Kindly consider the entry below.
Please give the measured viability, T/C for this molecule: COc1ccc([C@@H](O)c2cc(-c3ncnc4cc(N5CCOCC5)ccc34)c(F)cc2Cl)nn1 + COc1cc2c(cc1O)CCNC21CSC2c3c(OC(C)=O)c(C)c4c(c3C(COC1=O)N1C(O)C3Cc5cc(C)c(OC)c(O)c5C(C21)N3C)OCO4
79.1

====

system: NCI-H322M multicellular tumor spheroids, viability (% test/control); assay: Anticancer human tumor NCI-H322M cell line growth inhibition; settings: second compound 100 µM; first compound 0.0316 µM; stronger effect = lower value
quantity: viability, T/C (%)
Give bare numbers, in %.

Please tell me: viability, T/C of COc1cc(C)[nH]c(=O)c1CN1CCc2c(Cl)cc(C(OC)C3COC3)c(Cl)c2C1=O (stereo unspecified) + Cn1nnc2c(C(N)=O)ncn2c1=O , system NCI-H322M multicellular tumor spheroids, viability (% test/control)?
109

Provide viability, T/C for all items below, preserving their order.
1. [2H]c1nc(C)nc([2H])c1-c1cc(NC[C@@H](C)c2cccc3c(C(=O)NC)ccnc23)ncn1 + Cn1nnc2c(C(N)=O)ncn2c1=O
2. CC1COCCN1c1cc(-c2ccnn2C)c2ccnc(-c3ccn[nH]3)c2n1 (stereo unspecified) + Cn1nnc2c(C(N)=O)ncn2c1=O

1. 96.8
2. 41.1

Provide viability, T/C for all items below, preserving their order.
1. COc1ccc([C@@H](O)c2cc(-c3ncnc4cc(N5CCOCC5)ccc34)c(F)cc2Cl)nn1 + Cn1nnc2c(C(N)=O)ncn2c1=O
2. Cc1cc(C)c(CNC(=O)c2cc(-c3ccc(CN4CCOCC4)cc3)cc3c2cnn3C2CCCC2)c(=O)[nH]1 + Cn1nnc2c(C(N)=O)ncn2c1=O
3. CC(C)n1c(=O)n(C)c2cnc3cc(F)c(-c4ccc(OCCCN5CCCCC5)nc4)cc3c21 + Cn1nnc2c(C(N)=O)ncn2c1=O

[80.7, 105, 85]

====

test system: NCI-H322M multicellular tumor spheroids, viability (% test/control); assay: Anticancer human tumor NCI-H322M cell line growth inhibition; conditions: second compound 0.0949 µM; first compound 10 µM; stronger effect = lower value;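 further: spheroids exposed to compound for seven days before readout; 100% = DMSO vehicle control wells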
Exercise: for every item that follows, state its recorded viability, T/C.
Give bare numbers, in %.

Example compounds with recorded viability, T/C:
Please give the measured viability, T/C for this compound: [2H]c1nc(C)nc([2H])c1-c1cc(NC[C@@H](C)c2cccc3c(C(=O)NC)ccnc23)ncn1 + CC[C@@]1(O)C(=O)OCc2c1cc1n(c2=O)Cc2cc3c(CN(C)C)c(O)ccc3nc2-1
85.5

Please give the measured viability, T/C for this compound: COc1ccc([C@@H](O)c2cc(-c3ncnc4cc(N5CCOCC5)ccc34)c(F)cc2Cl)nn1 + CC[C@@]1(O)C(=O)OCc2c1cc1n(c2=O)Cc2cc3c(CN(C)C)c(O)ccc3nc2-1
29.8

Kindly consider the entry below.
Please give the measured viability, T/C for this compound: COc1cc(C)[nH]c(=O)c1CN1CCc2c(Cl)cc(C(OC)C3COC3)c(Cl)c2C1=O (stereo not drawn) + CC[C@@]1(O)C(=O)OCc2c1cc1n(c2=O)Cc2cc3c(CN(C)C)c(O)ccc3nc2-1
71.2

====

system: NCI-H322M multicellular tumor spheroids, viability (% test/control); assay: Anticancer human tumor NCI-H322M cell line growth inhibition; details: second compound 0.003 µM; first compound 0.0316 µM; active means viability on the fitted dose curve at most 10% of control; inactive means the rest;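 further: spheroids exposed to compound for seven days before readout; 100% = DMSO vehicle control wells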
Answer with one of the outcomes active, inactive

Assay outcome for COc1ccc([C@@H](O)c2cc(-c3ncnc4cc(N5CCOCC5)ccc34)c(F)cc2Cl)nn1 + COc1cc2c(cc1O)CCNC21CSC2c3c(OC(C)=O)c(C)c4c(c3C(COC1=O)N1C(O)C3Cc5cc(C)c(OC)c(O)c5C(C21)N3C)OCO4 : what was it?
active

Assay outcome for Cc1cc(C)c(CNC(=O)c2cc(-c3ccc(CN4CCOCC4)cc3)cc3c2cnn3C2CCCC2)c(=O)[nH]1 + COc1cc2c(cc1O)CCNC21CSC2c3c(OC(C)=O)c(C)c4c(c3C(COC1=O)N1C(O)C3Cc5cc(C)c(OC)c(O)c5C(C21)N3C)OCO4 : what was it?
inactive

Assay outcome for [2H]c1nc(C)nc([2H])c1-c1cc(NC[C@@H](C)c2cccc3c(C(=O)NC)ccnc23)ncn1 + COc1cc2c(cc1O)CCNC21CSC2c3c(OC(C)=O)c(C)c4c(c3C(COC1=O)N1C(O)C3Cc5cc(C)c(OC)c(O)c5C(C21)N3C)OCO4 : what was it?
inactive

Shift focus to the following entry.
Assay outcome for CC1COCCN1c1cc(-c2ccnn2C)c2ccnc(-c3ccn[nH]3)c2n1 (centres undefined) + CC[C@@]1(O)C(=O)OCc2c1cc1n(c2=O)Cc2cc3c(CN(C)C)c(O)ccc3nc2-1 : what was it?
inactive

====

tested on: NCI-H322M multicellular tumor spheroids, viability (% test/control); assay: Anticancer human tumor NCI-H322M cell line growth inhibition; conditions: second compound 0.3 µM; first compound 0.0316 µM; stronger effect = lower value;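 further: spheroids exposed to compound for seven days before readout; 100% = DMSO vehicle control wells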
Exercise: for every item that follows, state its recorded viability, T/C.
One number for each entry, in %.

Please tell me: viability, T/C of COc1ccc([C@@H](O)c2cc(-c3ncnc4cc(N5CCOCC5)ccc34)c(F)cc2Cl)nn1 + CC[C@@]1(O)C(=O)OCc2c1cc1n(c2=O)Cc2cc3c(CN(C)C)c(O)ccc3nc2-1 , system NCI-H322M multicellular tumor spheroids, viability (% test/control)?
56.4

Please tell me: viability, T/C of CC1COCCN1c1cc(-c2ccnn2C)c2ccnc(-c3ccn[nH]3)c2n1 (stereo not drawn) + CC[C@@]1(O)C(=O)OCc2c1cc1n(c2=O)Cc2cc3c(CN(C)C)c(O)ccc3nc2-1 , system NCI-H322M multicellular tumor spheroids, viability (% test/control)?
23.1

More entries:
Please tell me: viability, T/C of [2H]c1nc(C)nc([2H])c1-c1cc(NC[C@@H](C)c2cccc3c(C(=O)NC)ccnc23)ncn1 + CC[C@@]1(O)C(=O)OCc2c1cc1n(c2=O)Cc2cc3c(CN(C)C)c(O)ccc3nc2-1 , system NCI-H322M multicellular tumor spheroids, viability (% test/control)?
72.2

====

Exercise: for every item that follows, state its recorded viability, T/C.
tested on: NCI-H322M multicellular tumor spheroids, viability (% test/control); assay: Anticancer human tumor NCI-H322M cell line growth inhibition; conditions: second compound 94.9 pM; first compound 0.316 µM; stronger effect = lower value;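 further: spheroids exposed to compound for seven days before readout; 100% = DMSO vehicle control wells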
Answers are plain numbers, in %.

Example compounds with recorded viability, T/C:
Please give the measured viability, T/C for this compound: CC1COCCN1c1cc(-c2ccnn2C)c2ccnc(-c3ccn[nH]3)c2n1 (stereo unspecified) + COc1cc2c(cc1O)CCNC21CSC2c3c(OC(C)=O)c(C)c4c(c3C(COC1=O)N1C(O)C3Cc5cc(C)c(OC)c(O)c5C(C21)N3C)OCO4
27.5

Please give the measured viability, T/C for this compound: COc1cc(C)[nH]c(=O)c1CN1CCc2c(Cl)cc(C(OC)C3COC3)c(Cl)c2C1=O (stereo unspecified) + COc1cc2c(cc1O)CCNC21CSC2c3c(OC(C)=O)c(C)c4c(c3C(COC1=O)N1C(O)C3Cc5cc(C)c(OC)c(O)c5C(C21)N3C)OCO4
83.3

Please give the measured viability, T/C for this compound: [2H]c1nc(C)nc([2H])c1-c1cc(NC[C@@H](C)c2cccc3c(C(=O)NC)ccnc23)ncn1 + COc1cc2c(cc1O)CCNC21CSC2c3c(OC(C)=O)c(C)c4c(c3C(COC1=O)N1C(O)C3Cc5cc(C)c(OC)c(O)c5C(C21)N3C)OCO4
92.1

Please give the measured viability, T/C for this compound: CC(C)n1c(=O)n(C)c2cnc3cc(F)c(-c4ccc(OCCCN5CCCCC5)nc4)cc3c21 + COc1cc2c(cc1O)CCNC21CSC2c3c(OC(C)=O)c(C)c4c(c3C(COC1=O)N1C(O)C3Cc5cc(C)c(OC)c(O)c5C(C21)N3C)OCO4
85.3

Please give the measured viability, T/C for this compound: Cc1cc(C)c(CNC(=O)c2cc(-c3ccc(CN4CCOCC4)cc3)cc3c2cnn3C2CCCC2)c(=O)[nH]1 + COc1cc2c(cc1O)CCNC21CSC2c3c(OC(C)=O)c(C)c4c(c3C(COC1=O)N1C(O)C3Cc5cc(C)c(OC)c(O)c5C(C21)N3C)OCO4
92

More entries:
Please give the measured viability, T/C for this compound: COc1ccc([C@@H](O)c2cc(-c3ncnc4cc(N5CCOCC5)ccc34)c(F)cc2Cl)nn1 + COc1cc2c(cc1O)CCNC21CSC2c3c(OC(C)=O)c(C)c4c(c3C(COC1=O)N1C(O)C3Cc5cc(C)c(OC)c(O)c5C(C21)N3C)OCO4
82.2
